For each entry below, report its binding signal (affinity rank of 5 (1 = strongest)) value.
Target: His6-AvaR1 (Streptomyces avermitilis) (UniProt Q82H41)
Sequence: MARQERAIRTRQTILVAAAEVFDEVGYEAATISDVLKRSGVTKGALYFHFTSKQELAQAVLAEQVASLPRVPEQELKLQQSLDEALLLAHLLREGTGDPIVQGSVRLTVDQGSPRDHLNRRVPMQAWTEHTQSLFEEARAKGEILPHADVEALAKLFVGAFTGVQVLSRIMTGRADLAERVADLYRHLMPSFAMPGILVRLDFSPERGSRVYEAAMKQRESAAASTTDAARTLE
Test: competition EMSA
Conditions: EMSA: 0.3 nM DIG-labeled probe; buffer, salt, pH and temperature as in Zhu et al. 2016 (not given)
Reply: number alone, nothing else.

Please provide the recorded binding signal (affinity rank of 5 (1 = strongest)) for GTGCTGCAACACCGAATGGAATACCGGGTGACCGGTATGTATGGCGGTGCGGTGACCGCGGAAACGGCTCGGGCGGATTGACCGCCCGAGCCGGAGGAGAAGGCCATCGCCGCACCCGCGAGCAAGGGTCCAGAGGGACGGCGGCGCGAAGGCGGCCTGGCCTATGGGGAGTTCGGAGGACCAGGCGTCA (double strand) [aveRp] , tested on His6-AvaR1 (Streptomyces avermitilis) (UniProt Q82H41). 3

Another: GCCACACGCACCCTCCGCACCAGCCCGACCAGCGGGACACCGTCCCGACCAGTGGGACACCGTCCGGATCGCGGGACACCGTCCCGACCAGCGGGAAAAGACCAAGCGGTTCGCACCCTAACAGCGACGATCCTCCACTCCACCGCCGAAGACAGGCCCGGTCCTGACCGGGACGATAAAACCAGCTGAACGGTTTTTCAATGCTCCCCTCGCCCTCTCACAAACCACTCAAAAACACATATCTCACCCCCAACTCCC (double strand) [avaR1p] 5

# iterate: ACTGATGCGCGAGAAAACCGCACAAGCGGTTTGTTAAAGTTGCTGGACCCCCATCAGCAACGGAGCGCCCGATGGTCAAGCAGGTCAGACAGGAACGCGCGATCCGCACGCGCAACGCCTTGATCGAGTCC (double strand) [avaR3p] 1

What about GAGCTTCTCCCTGGCTTGGGACGGGCTGACGTGAACCACGGGACCCGAGAAGGGCTGAGGAAGGGCTGGAGAGCTGCGGAAGAGCTGCGGAGGAGCTGCGGAAGAGCTGCGGAAGAGCTGGAGGTCAAAGATACGTACTAGACGGTTTTGTCTTCAAGTCCCTCTTGCGGTCAAGGGTCATCCCTTACAAGGGAGTTGGGGGTGAGATATGTGTTTTTGAGTGGTTTGTGAGAGGGCG (double strand) [acop] ? 4

Next record, please: GCGGAAGGCGGCTGACCAGAGGGCCCTGCAAGAAACCAGCATAGCGGTTTGTTTGTGGCGCCCGTCACCACTTCGCCGACGCGGTACCCCCGGAGGCCAGGCACCGGTCACTGCCGCCGCCCGCGCTGCCCGCTGCCGCCGCCGAGCCGTACCGCGCGGCTCGGGCGTCGCGCATGCCGTCAGGCCCCCGGCACCTCCCTG (double strand) [avaR2p] 2

* * *

Biological target: His6-AvaR1 (Streptomyces avermitilis)
Sequence: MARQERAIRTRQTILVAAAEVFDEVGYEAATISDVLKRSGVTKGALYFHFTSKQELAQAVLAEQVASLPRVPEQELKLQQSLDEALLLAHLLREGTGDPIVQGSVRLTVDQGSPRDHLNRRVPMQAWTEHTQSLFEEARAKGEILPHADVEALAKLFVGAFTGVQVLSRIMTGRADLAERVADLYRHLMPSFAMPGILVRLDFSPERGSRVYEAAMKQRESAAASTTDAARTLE
Experiment: EMSA
Details: EMSA: 0.3 nM DIG-labeled probe; buffer, salt, pH and temperature as in Zhu et al. 2016 (not given)
metricName: binding

Solved cases below.
{"chainSequence": "GCCCTCGTCCCAGTAGAAGACGGGTCGCCGGGTTCCTGGGCCCGTGGCCCGCATGCGCAGCTCGACCTGGGTGATCACCTCGGTCTGCGTGGTCTCGACTCATGACCGCGCCGGTCAGCGCCTCCACAAGTCGTCCAAGTTTCAGCCGGTGGCAGACATTCCGTGA (double strand) [wbpAp]", "assayTarget": "His6-AvaR1 (Streptomyces avermitilis)", "binding": "no binding"}
{"chainSequence": "TGCGGTGACCCCCATCTCGATCAGTTCGGTGGGGTGAAACCGCGTGAGCCGGTTGTCGTCCAGGCTCTGGGGCCCGGTGTCCGCGAGGGCGGGGAACGCCCTGAGGGAGGGGTAGGCATAAGGAAGGTACTCGGCGAGGCCGCTGCTGTGGTTGATCAACATCCGGACCGTGATCGCGTCACCGCGTTCTCCGGGAACCAGCCTCGGAAGGTACCGGCCGATCGGAGTGTCAAGACCGATCAGGTCACCGACGAGGAGTGCAACGC (double strand) [2051p]", "assayTarget": "His6-AvaR1 (Streptomyces avermitilis)", "binding": "no binding"}
{"chainSequence": "GAACTGGGTGACGAGGAGCTTCTCGCGAAGCTTCGCGAAGCCAAGGAAGAGCTGTTCAACCTCCGCTTCCAGGCGGCGACCGGTCAGCTCGAGAACCACGGTCGGCTCAAGGCCGTCCGCAAGGACATCGCGCGGATCTACACCCTGATGCGTGAGCGCGAGCTGGGCATCGAGACGGTGGAGAGCGCCTGATGAGCGAGAGCAACGTGACTGAGACCAACGAGCAGCGCGGTTTCCGCAAGACCCGTGAGGGTCTGGTCGTCAGCGACAAGATGGACAA (double strand) [rpsQp]", "assayTarget": "His6-AvaR1 (Streptomyces avermitilis)", "binding": "binds"}
{"chainSequence": "TCAACCACCGTCATGTAGGGCGTACGCCCTTGCTGTACGGACCCGGTGTGTTGACGCCCGGTGCCGCGAGCGCACCCCCGCCCGCTCACGGCACCGGACTTCTCGGTGTTCCGGATGACGTCGTGCAGACGCGTGACAACTGCGCCAGTGCTGGTGCTGTGCAGCGTGTTCATCTCGCGCCCCCCGTCGTGGAGTCCGGTATCCCTGCGGTCTTGCCCTGCTGTCCTGCGGTGGTGCTGCCTTGCTTGTGTCGAAAAGCTTGCC (double strand) [probe 1]", "assayTarget": "His6-AvaR1 (Streptomyces avermitilis)", "binding": "no binding"}
{"chainSequence": "CTCGGGCGTGATCCGACTGCGGCGCACCGTTGCGGTCTCAGTCATCGCACTCGCCTCTCCTGCTTCGAACGACACGGTTTCCGGTTGCGTACGTCTACCCGTACGTCTTCCTCGTACCTTCCTGAAGATACCCCGAGAGCGAGCGAAACGAAACCGTTTCGTACGTGTCGTGGGTCACGCACATGTTTTCACAAGTTGCCGGGGCCCGTCGCGCGGAAAAGCATGGGTTAGGTGAACCCCGAGTCCGA (double strand) [aveTp]", "assayTarget": "His6-AvaR1 (Streptomyces avermitilis)", "binding": "binds"}

Fill blank: measured binding of the sequence GCGGAAGGCGGCTGACCAGAGGGCCCTGCAAGAAACCAGCATAGCGGTTTGTTTGTGGCGCCCGTCACCACTTCGCCGACGCGGTACCCCCGGAGGCCAGGCACCGGTCACTGCCGCCGCCCGCGCTGCCCGCTGCCGCCGCCGAGCCGTACCGCGCGGCTCGGGCGTCGCGCATGCCGTCAGGCCCCCGGCACCTCCCTG (double strand) [avaR2p] is ____. binds

What do you have for ATCCACGCTTCTCGCTCCGCCCAGTGTACGGCGCCGCGCGGACAGCGGCCGACCGGTTTTCCGGGGCCCGCGCGGAAGGCGGCAGGGGGGCCGGTACGGGCCGCGGACTGACCCGAATGGCGA (double strand) [ileSp] ? no binding

Data origin: paper PMC5744401
